- Tested on: HEK-293T
- ASSAY_PROTOCOL: Multiplex assay against HEK293T
- Format: toxicity, cell-based
- TEST_PARAMETERS: human, 24 h, 10 µM, compound concentration 10 uM, replicate 2
Hi! Just check whether Population Normal (%) is below 90%. Below gives Criterion met, equal or above gives Criterion not met.

Query: Population Normal (%) under 90%? Item: CC(C)(O)CNc1ncc(-c2ccnc(Nc3ccnc(Cl)c3)n2)c(CC2CC2)n1
Response: Criterion met

Query: # strict comparison: is reported Population Normal (%) < 90%? input = Cc1nc(-c2cn3c(n2)-c2ccc(-c4cnn(C(C)(C)C(N)=O)c4)cc2OCC3)n(C(C)C)n1
Response: Criterion not met

Query: Consider the compound CN1CCN(CCOc2cc(OC3CCOCC3)c3c(Nc4c(Cl)ccc5c4OCO5)ncnc3c2)CC1 . Is its Population Normal (%) strictly less than 90%?
Response: Criterion not met

Query: Take the compound c1cn2cc(-c3ccc4cn[nH]c4c3)nc(Nc3ccc(N4CCOCC4)cc3)c2n1 and say whether its Population Normal (%) is less than 90%.
Response: Criterion met

Query: Is Population Normal (%) of CNc1nc(NCc2ccc(NS(C)(=O)=O)cc2Cl)cc(-c2ccccn2)n1 strictly below 90%?
Response: Criterion not met

Query: Determine whether this compound shows Population Normal (%) lower than 90% (ties excluded): CN1C(=O)c2sccc2N(C)c2nc(Nc3ccc(S(N)(=O)=O)cc3)ncc21
Response: Criterion not met

Query: Regarding Cn1cc(-c2[nH]c3cc(NC(=O)[C@H](N)C4CCCCC4)cc4c3c2C=NNC4=O)cn1 , kindly confirm whether its Population Normal (%) is beneath 90%.
Response: Criterion met

Query: # strict comparison: is reported Population Normal (%) < 90%? input = CC[C@H](C)C(=O)O[C@H]1C[C@@H](C)C=C2C=C[C@H](C)[C@H](CC[C@@H]3C[C@@H](O)CC(=O)O3)[C@H]21
Response: Criterion not met

Query: Just wondering, is Population Normal (%) of COc1cccc([C@@H](C)NCCCc2ccccc2Cl)c1.Cl [TECALCET HYDROCHLORIDE] below 90%?
Response: Criterion not met

Query: For this compound, is Population Normal (%) lower than 90%? CCN(CC)CCCCNc1ncc2cc(-c3cc(OC)cc(OC)c3)c(NC(=O)NC(C)(C)C)nc2n1
Response: Criterion met

Query: Field: below-cutoff. Rule: recorded Population Normal (%) strictly less than 90%. Subject: CN(C)C(=O)/C(C#N)=C/c1ccc(-c2nc3cnc4[nH]ccc4c3n2C2CCCCC2)o1
Response: Criterion met

----------
- Test system: HEK-293T
- ASSAY_PROTOCOL: Multiplex assay against HEK293T
- Type: toxicity, cell-based
- TEST_PARAMETERS: human, 24 h, 1 µM, compound concentration 1 uM, replicate 1
Please respond with reported Population Mitochondria Different-Phenotype (%) for every item in the list.
Form entry: value (%) — number only.

Consider COc1cc(-n2cnc3cc(-c4ccc(Cl)cc4)sc3c2=O)ccc1OCCN1CCCC1 . Its measured Population Mitochondria Different-Phenotype (%) is 100

The value of Population Mitochondria Different-Phenotype (%) measured for the compound CN1CCN(CCOc2cc(OC3CCOCC3)c3c(Nc4c(Cl)ccc5c4OCO5)ncnc3c2)CC1 turned out to be 87

Lookup result for Cc1csc2c(N[C@@H](C)CN3CCN(S(=O)(=O)c4ccc(Cl)c(Cl)c4)CC3)ncnc12 ; measured Population Mitochondria Different-Phenotype (%): 93

Reported Population Mitochondria Different-Phenotype (%) for CN1CCN(c2ccc(OC(F)(F)F)c(Nc3ncc4c(n3)-c3c(c(C(N)=O)nn3CCO)CC4)c2)CC1 was 83

Record summary for COc1ncc(-c2ccc3nccc(-c4ccnnc4)c3c2)cc1NS(=O)(=O)c1ccc(F)cc1F : reported Population Mitochondria Different-Phenotype (%) = 71

Looking up Cc1nc(-c2ccc(-c3ccc(C(=O)N4CCc5cc6c(cc54)C4(CCN(C)CC4)CO6)cc3)c(C)c2)no1 , I found its Population Mitochondria Different-Phenotype (%) recorded as 89

CN(C)CC#Cc1ccc(OCCCc2sc(N3CCc4cccc(C(=O)Nc5nc6ccccc6s5)c4C3)nc2C(=O)O)c(F)c1 yielded Population Mitochondria Different-Phenotype (%) of 54

Data point: CN(C)C(=O)/C(C#N)=C/c1ccc(-c2nc3cnc4[nH]ccc4c3n2C2CCCCC2)o1 ; Population Mitochondria Different-Phenotype (%) = 60

Notebook: Cc1cc(C)cc(-c2cnc3cc(Cl)c(-c4cccc(O)c4)cc3c2OCCCN)c1 , Population Mitochondria Different-Phenotype (%) read as 98
